Source of measurements: patent US20160251438A1

Target: T1, recombinant soluble human GARP-TGFβ1 complex (human, UniProt Q14392 20-628; P01137 30-390)
T1 construct: co-expressed in HEK293E, purified by the Strep-Tag; TGFβ consists of LAP and mature TGFβ; also called shGARP-TGFβ; rhGARP-TGFβ
T1 sequence (Q14392 other isoform, or with tags, fused parts or gaps limits assumed, chain 1 of 2): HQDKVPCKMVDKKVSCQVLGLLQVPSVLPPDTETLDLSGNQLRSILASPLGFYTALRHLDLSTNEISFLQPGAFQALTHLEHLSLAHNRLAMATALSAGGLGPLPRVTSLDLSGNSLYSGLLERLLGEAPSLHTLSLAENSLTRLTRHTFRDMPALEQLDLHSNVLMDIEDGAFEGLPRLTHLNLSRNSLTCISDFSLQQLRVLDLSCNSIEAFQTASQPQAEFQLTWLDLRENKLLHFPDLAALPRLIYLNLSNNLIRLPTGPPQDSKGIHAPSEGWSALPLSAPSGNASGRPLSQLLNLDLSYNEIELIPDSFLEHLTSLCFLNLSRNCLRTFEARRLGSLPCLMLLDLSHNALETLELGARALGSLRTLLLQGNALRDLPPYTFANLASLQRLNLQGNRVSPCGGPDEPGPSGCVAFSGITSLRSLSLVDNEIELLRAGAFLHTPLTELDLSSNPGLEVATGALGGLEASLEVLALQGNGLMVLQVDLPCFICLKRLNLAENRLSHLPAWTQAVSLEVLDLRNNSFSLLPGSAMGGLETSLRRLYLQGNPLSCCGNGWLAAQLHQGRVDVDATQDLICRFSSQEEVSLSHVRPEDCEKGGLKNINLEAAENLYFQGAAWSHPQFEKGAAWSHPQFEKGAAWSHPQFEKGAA
T1 sequence (P01137 30-390 limits assumed, chain 2 of 2): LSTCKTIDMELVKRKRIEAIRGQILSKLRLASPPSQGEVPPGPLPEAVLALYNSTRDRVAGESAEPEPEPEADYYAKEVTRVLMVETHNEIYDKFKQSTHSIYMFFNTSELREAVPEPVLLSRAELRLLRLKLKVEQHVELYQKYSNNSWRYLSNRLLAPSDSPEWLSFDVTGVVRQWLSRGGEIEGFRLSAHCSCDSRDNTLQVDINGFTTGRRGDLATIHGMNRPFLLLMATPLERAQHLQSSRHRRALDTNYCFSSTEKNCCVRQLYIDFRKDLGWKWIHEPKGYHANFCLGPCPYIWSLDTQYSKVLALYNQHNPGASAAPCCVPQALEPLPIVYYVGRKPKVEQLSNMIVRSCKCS
Test: SPR (Biacore), hGARP-TGFβ1 immobilised
parameter: fold improvement of ka (reference LHG-10) (fold)
Give bare numbers, in fold.

Lookup: Which measured fold improvement of ka (reference LHG-10) value corresponds to LHG-10.4 (antibody, human IgG1, V domains shown, VK-shuffled variant of LHG-10, human IgG1) VH: EVQLVQPGAELRNSGASVKVSCKASGYRFTSYYIDWVRQAPGQGLEWMGRIDPEDGGTKYAQKFQGRVTFTADTSTSTAYVELSSLRSEDTAVYYCARNEWETVVVGDLMYEYEYWGQGTQVTVSS VL: DIQMTQSPSSLSASLGDRVTITCQASQSISSYLAWYQQKPGQAPKLLIYGTSRLKTGVPSRFSGSGSGTSFTLTISGLEAEDAGTYYCQQYYSAPVTFGQGTKVELK ?
Found: 0.5

***
Lookup: Which measured fold improvement of ka (reference LHG-10) value corresponds to LHG-10 (antibody, human IgG1, V domains shown, llama-derived V regions in a full human IgG1) VH: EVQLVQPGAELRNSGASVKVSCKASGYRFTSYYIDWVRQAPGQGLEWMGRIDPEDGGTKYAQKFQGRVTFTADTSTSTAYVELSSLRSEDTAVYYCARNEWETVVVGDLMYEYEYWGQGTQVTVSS VL: DIQMTQSPTSLSASLGDRVTITCQASQSISSYLAWYQQKPGQAPKLLIYGASRLQTGVPSRFSGSGSGTSFTLTISGLEAEDAGTYYCQQYDSLPVTFGQGTKVELK ?
Found: 1
